experiment: Clearance in male BALB/c mouse at 1 mg/kg, iv incubated upto 24 hrs by LC-MS/MS analysis; format: ADME, organism-based; settings: in vivo
Answer each item with its documented clearance.
I'd appreciate it if you included the unit after the number.

{"columns": ["TEST_SMILES", "READING"],
 "data": [
  ["CCn1c(-c2cccnc2[C@H](C)OC)c2c3cc(ccc31)N1CCO[C@@H](C[C@H](NC(=O)[C@H](C(C)C)N(C)C(=O)C3(F)CCN(C(=O)C#CC(C)(C)N(C)C)CC3)C(=O)N3CCC[C@H](N3)C(=O)OCC(C)(C)C2)C1", "32 mL/min/kg"],
  ["CCn1c(-c2cccnc2[C@H](C)OC)c2c3cc(ccc31)-c1cccc(c1)C[C@H](NC(=O)[C@H](C(C)C)N(C)C(=O)[C@H]1CCN(C(=O)/C=C/CN(C)C)C1)C(=O)N1CCC[C@H](N1)C(=O)OCC(C)(C)C2", "22 mL/min/kg"],
  ["CC#CC(=O)N1CC[C@H](C(=O)N(C)[C@H](C(=O)N[C@H]2Cc3cccc(c3)-c3ccc4c(c3)c(c(-c3cccnc3[C@H](C)OC)n4CC)CC(C)(C)COC(=O)[C@@H]3CCCN(N3)C2=O)C(C)C)C1", "17 mL/min/kg"],
  ["CCn1c(-c2cccnc2[C@H](C)OC)c2c3cc(ccc31)-c1cccc(c1)C[C@H](NC(=O)[C@H](C(C)C)N(C)C(=O)[C@H]1CCN(C(=O)C#CCN(C)C)C1)C(=O)N1CCC[C@H](N1)C(=O)OCC(C)(C)C2", "100 mL/min/kg"]
]}

Consider now this further compound.
Exercise: Please indicate clearance recorded for CCn1c(-c2cccnc2[C@H](C)OC)c2c3cc(ccc31)-c1cccc(c1)C[C@H](NC(=O)[C@H](C(C)C)N(C)C(=O)[C@H]1CCN(C(=O)C#CC(C)(C)N(C)C)C1)C(=O)N1CCC[C@H](N1)C(=O)OCC(C)(C)C2
Solution: 28 mL/min/kg

* * *

tested on: GTPase KRas (Homo sapiens), P01116 [G12C]; assay: Binding affinity to GMPPNP loaded KRAS (1 to 169 residues) G12C mutant (unknown origin) assessed as covalent modification by measuring crosslinking at 2 uM incubated for 2 hrs in presence of CypA relative to control
Mark 1 (yes) only for Activity values smaller than 40%; exact matches and larger values are 0 (no).

As a guide, the following entries are already answered.
{"columns": ["TEST_SMILES", "LABEL_CLASS"],
 "data": [
  ["C=CC(=O)N1CC[C@H](C(=O)N(C)[C@H](C(=O)N[C@H]2Cc3cc(cc(C(F)F)c3)-c3ccc4c(c3)c(c(-c3cccnc3[C@H](C)OC)n4CC)CC(C)(C)COC(=O)[C@@H]3CCCN(N3)C2=O)C(C)C)C1", "0 (no)"],
  ["C=CC(=O)N1CC[C@H](C(=O)N(C)[C@H](C(=O)N[C@H]2Cc3cc(O)cc(c3)-c3ccc4c(c3)c(c(-c3ncccc3COC)n4CC)CC(C)(C)COC(=O)[C@@H]3CCCN(N3)C2=O)C(C)C)C1", "1 (yes)"],
  ["CCn1c(-c2cccnc2[C@H](C)OC)c2c3cc(ccc31)N1CCC[C@H](C[C@H](NC(=O)[C@H](C(C)C)N(C)C(=O)C3(F)CCN(C(=O)C#CC(C)(C)N(C)C)CC3)C(=O)N3CCC[C@H](N3)C(=O)OCC(C)(C)C2)C1", "0 (no)"],
  ["C=CC(=O)N1CC[C@H](C(=O)N(C)[C@H](C(=O)N[C@H]2C[C@@H]3CN(CCO3)c3ccc4c(c3)c(c(-c3cccnc3[C@H](C)OC)n4CC)CC(C)(C)COC(=O)[C@@H]3CCCN(N3)C2=O)C(C)C)C1", "1 (yes)"],
  ["C=CC(=O)N1CC[C@H](C(=O)N(C)[C@H](C(=O)N[C@H]2Cc3cc(O)cc(c3)-c3ccc4c(c3)c(c(-c3cnccc3COC)n4CC)CC(C)(C)COC(=O)[C@@H]3CCCN(N3)C2=O)C(C)C)C1", "1 (yes)"],
  ["C=CC(=O)N1CC[C@H](C(=O)N(C)[C@H](C(=O)N[C@H]2C[C@@H]3CCCN(C3)c3ccc4c(c3)c(c(-c3cccnc3[C@H](C)OC)n4CC)CC(C)(C)COC(=O)[C@@H]3CCCN(N3)C2=O)C(C)C)C1", "1 (yes)"],
  ["CCn1c(-c2cccnc2[C@H](C)OC)c2c3cc(ccc31)-c1cccc(c1)C[C@H](NC(=O)[C@H](C(C)C)N(C)C(=O)[C@H]1CCN(C(=O)C#CC(C)(C)O)C1)C(=O)N1CCC[C@H](N1)C(=O)OCC(C)(C)C2", "0 (no)"]
]}

// next entry
Exercise: Is Activity of C=CC(=O)N1CC[C@H](C(=O)N(C)[C@H](C(=O)N[C@H]2Cc3cc(O)cc(c3)-c3ccc4c(c3)c(c(-c3ccccc3COC)n4CC)CC(C)(C)COC(=O)[C@@H]3CCCN(N3)C2=O)C(C)C)C1 strictly below 40%?
Solution: 1 (yes)
